system: T-47D breast; assay: NCI-60 one-dose screen, 48 h (100 = growth as untreated, 0 = no growth, -100 = all killed); conditions: 10 µM unless noted
The panel holds about 83,000 compounds, 20% with a hit somewhere; the sample as a whole holds those more often. Calls of active or inactive are those of the source. The calls were made as follows: active = growth percent below 10; inactive = the rest.
endpointLabel: growth

Req: Would you kindly share the measured growth for `C[C@@H]1C(=O)N(C[C@@H](Cc2ccccc2)NC(=O)OCc2ccccc2)[C@]1(Cc1ccccc1)C(=O)OCc1ccccc1` ?
Resp: 22.3% (inactive)

Req: Same question for `COc1cc(-c2cc(-c3ccc(Nc4nc(Nc5ccccc5)nc(Nc5ccc(Cl)cc5)n4)cc3)nc(N)n2)cc(OC)c1OC` please.
Resp: 38.4% (inactive)

Req: Try the compound `CCCCn1c(=O)[nH]c(N)c(C(c2ccc(F)cc2)c2c(N)[nH]c(=O)n(CCCC)c2=O)c1=O`
Resp: 39.6% (inactive)

Req: What do you get for `COc1cc(/C=C/c2nc(Nc3ccc(S(=O)(=O)Nc4cc(C)on4)cc3)c3ccccc3n2)ccc1O` ?
Resp: 58.4% (inactive)

Req: Continue with `Clc1ccc2[nH]c3c(NCCCN4CCOCC4)ncnc3c2c1`
Resp: 72.2% (inactive)

====

test system: SK-MEL-2 melanoma; test: NCI-60 one-dose screen, 48 h (100 = growth as untreated, 0 = no growth, -100 = all killed); conditions: 10 µM unless noted
This is part of a sample that, as a whole, favours compounds with a hit. Of some 83,000 tested, about 20% had one in any assay.
endpointLabel: growth (%)
# number only, unit % dropped from output

Req: What value of growth has been recorded for this entry: `CC1=CC(=O)C(C(C)C)=CC1=Nc1cc(Br)c(O)c(Br)c1`
Resp: 23.5

Req: Similarly, `C(=C\c1nc2ccccc2[nH]1)/c1nc2ccccc2[nH]1` ?
Resp: 107

Req: Please give the result for `CCN(CC)CCOC(=O)N1c2ccccc2Sc2ccccc21` too.
Resp: 97.9

Req: Check `CC(C)(O)c1cccc(F)c1` too.
Resp: 124

Req: Same question, `CC1(C)CC(=O)c2c(ccc(C(=O)C[C@H](N)CO)c2N)O1` this time
Resp: 36.8

Req: What do we get for `Cc1ccc(S(=O)(=O)NN/C(N)=N\S(=O)(=O)c2cc(C)c(Cl)cc2SCc2ccccc2)cc1` ?
Resp: 86.9

Req: Likewise for `COc1cc(/C=C/c2nc(Nc3ccc(S(=O)(=O)Nc4cc(C)on4)cc3)c3ccccc3n2)ccc1O` ?
Resp: 72

Req: Also need `N#Cc1cccc(-c2nc3ccccn3c2NCCN2CCOCC2)c1` , thanks.
Resp: 100

Req: Please do the same for Cc1nn(-c2ccccc2)c2c1C(c1ccc([N+](=O)[O-])cc1)C(C#N)=C(N)O2 (stereo not given) as well.
Resp: 123

Req: Try this molecule next: `CC1(C)C(=O)/C(=C\c2cccnc2)C[C@]2(C)[C@H]3CC=C4[C@@H]5C[C@@](C)(C(=O)O)CC[C@]5(C)CC[C@@]4(C)[C@]3(C)CC[C@@H]12`
Resp: 96.8

====

tested on: CCRF-CEM leukemia; assay: NCI-60 one-dose screen, 48 h (100 = growth as untreated, 0 = no growth, -100 = all killed); settings: 10 µM unless noted
Compounds without any hit were thinned out: in the full panel of roughly 83,000, 20% have a hit.
Note to self: values exactly at 20% are true. So growth at or above 20% is true, below is false.

Req: Could you tell me if the measured growth of `Clc1ccc(/C=N\N=c2\scc(-c3ccc(Cl)cc3)n2/N=C/c2ccc(Cl)cc2)cc1` reaches 20% or more?
Resp: true

Req: Consider next the molecule `Clc1ccc(-c2nnc(Cn3ccnc3)o2)cc1` in the same way.
Resp: true

Req: Check `CC(=O)Nc1ccc(C(=O)/C=C/c2ccccc2)cc1` too.
Resp: true

Req: Field entry: `NS(=O)(=O)c1cnccc1-n1ccc(=O)c(S(N)(=O)=O)c1`
Resp: true

Req: # repeat for `COc1cc2c(cc1OC)-c1ccc3cc4c(cc3c1N(CCN1CCCC1)C2)OCO4`
Resp: false

Req: Try this molecule too: `Cc1ccccc1NC(=O)CN(C)C`
Resp: true

Req: Further, for `N#Cc1c(N)n2c(nc1=Nc1ccc([N+](=O)[O-])cc1)sc1cc(Cl)ccc12` ?
Resp: true

Req: Can you handle `Cc1cnc(Nc2ccc(OCCN3CCCC3)cc2)nc1NCc1ccco1` next?
Resp: true

Req: Entry to check: `CCOC(=O)c1c(C)nc2c(c1N)/C(=C/c1ccc(OC)cc1)C(=O)N2Cc1ccc(F)cc1`
Resp: false

Req: Now try `CC1(C)CC(=O)c2c(ccc(C(=O)C[C@H](N)CO)c2N)O1` .
Resp: false

Req: Next molecule: `CC1=CC(=O)C(C(C)C)=CC1=Nc1cc(Br)c(O)c(Br)c1`
Resp: false

Req: Further, for `CN1CCN(C(=O)[C@]23CCC(C)(C)C[C@@H]2C2=CC[C@@H]4[C@@]5(C)Cc6c([nH]c7ccccc67)C(C)(C)[C@@H]5CC[C@@]4(C)[C@]2(C)CC3)CC1` ?
Resp: true

Req: Then this molecule: `N#C/C(=C\c1ccc(Br)cc1)n1nnc2cc(Cl)c(Cl)cc21`
Resp: false

Req: Please do the same for `CN(CCCCCCCCNc1ccnc2ccccc12)Cc1ccc(-c2ccc(-c3ccc(C#N)cc3)s2)cc1` as well.
Resp: false

Req: What do you get for `O=[N+]([O-])c1ccc(-c2cc3c(Nc4ccc(Cl)c(C(F)(F)F)c4)ncnc3s2)cc1` ?
Resp: false

Req: Note, next up: `Cc1nc(Nc2cccc(NC(=O)Nc3ccc(Cl)cc3)c2)c2ccccc2n1`
Resp: true

Req: Now consider CNC(=O)NCC1OC(n2cnc3c(NC(=O)Nc4ccccc4)ncnc32)C2OC(C)(C)OC12 (centres undefined) .
Resp: true

Req: And then `Cn1ccnc1C(=O)/C=C/c1ccc(C(=O)Nc2ccc(S(F)(F)(F)(F)F)cc2)cc1` , what is it?
Resp: false

Req: Lookup `Cc1ccc2c(n1)C(=O)C(Oc1ccc(F)cc1)=CC2=O`
Resp: true

Req: Try the molecule `CCOc1cccnc1/C=N/NC(N)=S`
Resp: false

Req: Repeat with CCCCNC(=O)NS(=O)(=O)c1ccc(N2N=C(c3ccc(C)cc3C)CC2c2ccc(N(C)C)cc2)cc1 (centres undefined)
Resp: true

Req: Ok, now `Nc1nc(Nc2ccc(Cl)cc2)nn1S(=O)(=O)c1ccc(-c2ccc(F)cc2)cc1`
Resp: true

Req: Same thing, different molecule: C=C(CNCCc1ccc(O)cc1)[C@@H]1CC[C@]2(COC3CCCCO3)CC[C@]3(C)[C@H](CC[C@@H]4[C@@]5(C)CCC(NCCO)C(C)(C)[C@@H]5CC[C@]43C)[C@@H]12 (some centres undefined)
Resp: false

Req: Subsequent entry: `COc1ccc(/C=N/NC(=O)Cn2c(-c3ccc(S(C)(=O)=O)cc3)nc3cc(Cl)ccc32)cc1`
Resp: false

Req: Now consider `COc1c(C)cnc(CSc2nc(-c3ccc(C)cc3)cn2-c2ccc(Cl)cc2)c1C` .
Resp: true

Req: Try the molecule `Clc1ccc2c(NCCCN3CCN(c4nc(-n5ccnc5)nc5ccccc45)CC3)ccnc2c1`
Resp: false

Req: Another: `CCc1nc2ccccc2[nH]1`
Resp: true

Req: One more molecule: Nc1nc(I)c2ncn(C3OC(CO)C(O)C3O)c2n1 (centres undefined)
Resp: true

Req: Repeat for the following molecule: O=C1c2ccccc2C2(c3ccc(O)cc3)c3ccccc3Oc3cccc1c32 (centres undefined)
Resp: false

Req: And then `Cc1ccc(S(=O)(=O)Nc2sccc2-c2nc(-c3ccccc3)no2)cc1` , what is it?
Resp: true

Req: Please do the same for O=C(CC1Sc2ccccc2NC1=O)NNc1ccc(F)cc1 (centres undefined) as well.
Resp: false

Req: What about `O[C@H]1CO[C@H]2[C@@H]1OC[C@@H]2Oc1ccc(Nc2nc(Nc3ccc(F)c(Cl)c3)ncc2F)cc1Cl` ?
Resp: true

Req: Repeat for the following molecule: CCC(O)(C(c1ccccc1)c1ccccn1)C(c1ccccc1)c1ccccn1 (centres undefined)
Resp: true

Req: Same question, `COC(=O)/C(=C\c1ccc(OC)cc1)C(=O)N1c2ccccc2Sc2ccccc21` this time
Resp: true

Req: Note, next up: Nc1ccn(C2OC(F)(CO)C(O)C2F)c(=O)n1 (centres undefined)
Resp: true

Req: Same lookup for `COc1cc2c(=O)n(CCCn3ccnc3)c3c4cc5c(cc4ccc3c2cc1OC)OCO5` , please.
Resp: false

Req: Could you do the same for `COc1ccc(-c2cc(-c3ccc(Nc4nc(Nc5ccccc5)nc(Nc5ccc(Cl)cc5)n4)cc3)nc(N)n2)cc1` , please?
Resp: true

Req: Same for C=C1c2c(C)nn(-c3ccc(S(N)(=O)=O)cc3)c2N(C)C23CC1C1(C)c4c(C)nn(-c5ccc(S(N)(=O)=O)cc5)c4N(C)C(C)(CC12)C3 (centres undefined)
Resp: false
